Hello, the source for this data is patent US20180057604A1, in case you need it.

Consider the following binders; for each one, report its maximal % inhibition of Abeta x-40.
Biological target: BACE1 in primary mouse cortical neurons (mouse, UniProt P56818 46-501)
Sequence (P56818 46-501): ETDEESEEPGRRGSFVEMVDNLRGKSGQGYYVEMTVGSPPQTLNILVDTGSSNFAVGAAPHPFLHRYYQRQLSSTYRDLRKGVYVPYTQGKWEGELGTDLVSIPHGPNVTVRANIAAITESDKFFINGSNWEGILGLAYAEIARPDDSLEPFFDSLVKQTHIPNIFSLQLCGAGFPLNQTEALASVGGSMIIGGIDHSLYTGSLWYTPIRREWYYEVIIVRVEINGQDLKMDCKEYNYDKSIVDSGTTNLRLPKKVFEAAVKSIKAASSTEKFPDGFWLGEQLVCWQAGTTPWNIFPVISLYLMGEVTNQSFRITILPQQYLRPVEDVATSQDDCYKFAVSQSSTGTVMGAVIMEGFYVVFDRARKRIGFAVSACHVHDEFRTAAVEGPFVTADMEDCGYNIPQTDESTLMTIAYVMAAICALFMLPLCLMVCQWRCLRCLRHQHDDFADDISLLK
Experiment: cell-based or functional assay
Returns: string containing the numeric result and its unit.

Worked examples follow.
Binder	maximal % inhibition of Abeta x-40
5983 (antibody, V domains shown, anti-BACE1 IgG) VH: QLQLQESGPGLVKPSETLSLTCTVSGGSISSSSYYWGWIRQPPGKGLEWIGNIYYSGSTYYNPSLRSRVTISVDTSKNQFFLKLSSVTAADTAVYYCARLGHGYNYFDLWGRGTLVTVSS VL: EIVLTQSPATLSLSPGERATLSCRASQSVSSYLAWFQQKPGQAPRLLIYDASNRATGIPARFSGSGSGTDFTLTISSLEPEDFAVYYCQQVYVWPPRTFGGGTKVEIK	72%
5905 (antibody, V domains shown, anti-BACE1 IgG) VH: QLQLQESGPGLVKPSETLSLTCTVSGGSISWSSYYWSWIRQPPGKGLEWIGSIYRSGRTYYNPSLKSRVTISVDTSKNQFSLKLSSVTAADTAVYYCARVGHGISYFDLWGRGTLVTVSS VL: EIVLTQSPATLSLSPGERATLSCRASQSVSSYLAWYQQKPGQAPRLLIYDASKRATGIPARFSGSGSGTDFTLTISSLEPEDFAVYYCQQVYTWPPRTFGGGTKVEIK	65%
6288 (antibody, V domains shown, anti-BACE1 IgG) VH: QLQLQESGPGLVKPSETLSLTCTVSGGSTSSSSYYWGWIRQPPGKGLEWIGSIYRSGSTYYNPSLRSRVTISVDTSKNQFSLKLSSVTAADTAVYYCARVGHGISYFDLWGRGTLVTVSS VL: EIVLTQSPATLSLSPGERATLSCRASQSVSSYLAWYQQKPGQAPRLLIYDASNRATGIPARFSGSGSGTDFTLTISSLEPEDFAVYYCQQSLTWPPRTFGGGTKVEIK	67%
6276 (antibody, V domains shown, anti-BACE1 IgG) VH: QVQLVQSGAEVKKPGSSVKVSCKASGGTFRGYAISWVRQAPGQGLEWMGNIIPGLSTANYAQKFQGRVTITADESTSTAYMELSSLRSEDTAVYYCARSGGTKYGMLDVWGQGTMVTVSS VL: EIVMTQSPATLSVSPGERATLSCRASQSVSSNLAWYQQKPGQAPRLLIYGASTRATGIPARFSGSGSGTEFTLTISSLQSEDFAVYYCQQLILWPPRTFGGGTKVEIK	81%

Kindly note the recorded maximal % inhibition of Abeta x-40 for 5985 (antibody, V domains shown, anti-BACE1 IgG) VH: QLQLQESGPGLVKPSETLSLTCTVSGGSISSSSYYWGWIRQPPGKGLEWIGNIYYSGSTYYNPSLKSRVTISVDTSKNQFSLKLSSVTAADTAVYYCARLGHGYNYFDLWGRGTLVTVSS VL: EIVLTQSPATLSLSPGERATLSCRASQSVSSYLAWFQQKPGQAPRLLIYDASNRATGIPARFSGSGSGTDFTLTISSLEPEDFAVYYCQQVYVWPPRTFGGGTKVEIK , which is 73%
